Source of measurements: ChEMBL document CHEMBL5038644

Biological target: Apelin receptor (Homo sapiens)
Test: Agonist activity at human APJ expressed in HEK293 cell membrane assessed as maximal efficacy for recruitment of PDZ-RhoGEF Galphai1 to cell membrane by BRET-based G protein dissociation assay relative to control
Assay type: functional
Settings: filed as agonist
Answer each item with its documented Emax.
// note: answer is a bare numeric in %

Query: Emax; subject: CCCC[C@H](NC(=O)[C@@H]1CCCN1C(=O)CNC(=O)[C@H](CCCCN)NC(=O)[C@@H]1CCNC/C=C/C[C@H](NC(=O)[C@H](CCCNC(=N)N)NC(=O)[C@@H]2CCC(=O)N2)C(=O)N[C@@H](CCCNC(=N)N)C(=O)N[C@@H](CC(C)C)C(=O)N[C@@H](CO)C(=O)N1)C(=O)N1CCC[C@H]1C(=O)N[C@@H](Cc1ccccc1)C(=O)O
95

Query: Emax; subject: CCCC[C@H](NC(=O)[C@@H]1CCCN1C(=O)CNC(=O)[C@H](CCCCN)NC(=O)[C@@H]1CCN(C)C/C=C/C[C@H](NC(=O)[C@H](CCCNC(=N)N)NC(=O)[C@@H]2CCC(=O)N2)C(=O)N[C@@H](CCCNC(=N)N)C(=O)N[C@@H](CC(C)C)C(=O)N[C@@H](CO)C(=O)N1)C(=O)N1CCC[C@H]1C(=O)N[C@@H](Cc1ccccc1)C(=O)O
97

Query: Emax; subject: CC(C)C[C@@H]1NC(=O)[C@H](CCCNC(=N)N)NC(=O)[C@@H](N)C/C=C\C[C@@H](C(=O)N[C@@H](CCCCN)C(=O)NCC(=O)N2CCC[C@H]2C(=O)N[C@H](Cc2ccc(O)cc2)C(=O)O)NC(=O)[C@H](CO)NC1=O
45
